Cited source for all entries: BindingDB's records for doi:10.1016/j.chembiol.2004.08.006

SUBJECT OF TEST: Coagulation factor VIII (Homo sapiens)
Sequence (P00451 20-759 limits assumed): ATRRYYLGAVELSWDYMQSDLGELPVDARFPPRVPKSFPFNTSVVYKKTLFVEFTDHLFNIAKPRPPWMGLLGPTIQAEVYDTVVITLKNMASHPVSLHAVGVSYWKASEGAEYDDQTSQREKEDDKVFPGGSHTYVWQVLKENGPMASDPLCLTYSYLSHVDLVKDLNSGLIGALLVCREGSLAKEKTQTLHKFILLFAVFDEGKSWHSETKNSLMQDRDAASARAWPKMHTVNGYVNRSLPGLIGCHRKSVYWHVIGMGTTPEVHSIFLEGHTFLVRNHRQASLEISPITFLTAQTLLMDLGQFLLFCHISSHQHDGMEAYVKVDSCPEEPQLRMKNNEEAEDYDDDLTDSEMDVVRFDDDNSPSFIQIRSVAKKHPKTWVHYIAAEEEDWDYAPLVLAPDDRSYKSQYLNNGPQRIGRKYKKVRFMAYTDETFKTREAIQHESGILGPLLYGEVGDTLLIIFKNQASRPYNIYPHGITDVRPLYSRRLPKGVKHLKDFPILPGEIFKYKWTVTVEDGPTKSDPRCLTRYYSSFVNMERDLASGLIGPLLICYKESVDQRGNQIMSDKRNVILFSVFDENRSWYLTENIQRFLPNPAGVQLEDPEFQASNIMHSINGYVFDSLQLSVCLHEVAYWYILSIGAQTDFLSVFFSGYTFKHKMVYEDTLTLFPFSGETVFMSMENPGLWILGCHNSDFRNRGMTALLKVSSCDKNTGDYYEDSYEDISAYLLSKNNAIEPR
Sequence (P00451 1668-2351 limits assumed): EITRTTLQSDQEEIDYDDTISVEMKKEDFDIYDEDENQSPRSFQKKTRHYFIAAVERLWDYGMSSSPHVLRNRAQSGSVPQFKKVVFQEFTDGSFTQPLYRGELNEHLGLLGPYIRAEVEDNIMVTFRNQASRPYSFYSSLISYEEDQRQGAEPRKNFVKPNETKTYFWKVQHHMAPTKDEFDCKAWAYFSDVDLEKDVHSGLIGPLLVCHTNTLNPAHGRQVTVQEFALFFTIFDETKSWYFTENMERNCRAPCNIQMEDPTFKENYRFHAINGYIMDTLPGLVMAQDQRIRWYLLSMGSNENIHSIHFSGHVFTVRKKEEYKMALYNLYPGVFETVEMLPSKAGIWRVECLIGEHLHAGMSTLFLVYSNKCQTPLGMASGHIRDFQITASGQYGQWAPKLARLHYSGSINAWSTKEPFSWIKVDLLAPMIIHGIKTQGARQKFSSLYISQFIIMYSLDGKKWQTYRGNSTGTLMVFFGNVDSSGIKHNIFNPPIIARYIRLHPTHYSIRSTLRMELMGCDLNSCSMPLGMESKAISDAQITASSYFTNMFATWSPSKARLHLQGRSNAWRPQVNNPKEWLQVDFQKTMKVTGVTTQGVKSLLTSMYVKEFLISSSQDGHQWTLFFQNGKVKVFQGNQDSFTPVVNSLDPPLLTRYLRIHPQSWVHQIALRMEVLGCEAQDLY
PROCEDURE DETAILS: Inhibition Assay
DETAILS: pH 7.9
READOUT LABEL: IC50 (µM)
One number for each entry, in µM.

[
  {
    "MOL": "O=C1/C(=C/c2ccc(Br)o2)SC(=S)N1c1ccc([N+](=O)[O-])cc1",
    "READOUT LABEL": "IC50",
    "RESULT UNIT": "µM",
    "RESULT NUMBER": 11.7
  },
  {
    "MOL": "O=C1/C(=C/c2ccc(I)o2)SC(=S)N1c1cccc(C(F)(F)F)c1",
    "READOUT LABEL": "IC50",
    "RESULT UNIT": "µM",
    "RESULT NUMBER": 5
  },
  {
    "MOL": "O=C1/C(=C/c2ccc(-c3ccc(Cl)cc3Cl)o2)SC(=S)N1c1cccc(C(F)(F)F)c1",
    "READOUT LABEL": "IC50",
    "RESULT UNIT": "µM",
    "RESULT NUMBER": 2.1
  },
  {
    "MOL": "O=C1NC(=S)NC(=O)C1=Cc1ccc(-c2cc(Cl)c([N+](=O)[O-])cc2Cl)o1",
    "READOUT LABEL": "IC50",
    "RESULT UNIT": "µM",
    "RESULT NUMBER": 7.5
  }
]

# batch size: 2; output IC50 per entry
1. O=C1/C(=C/c2ccc(Br)o2)SC(=S)N1c1cccc(C(F)(F)F)c1
2. O=C1/C(=C\c2ccc(Sc3ccc(Cl)cc3)o2)SC(=S)N1c1ccc([N+](=O)[O-])cc1

8.5
5.6

I would be grateful if you could provide IC50 for each of the following entries.
1. O=C1NC(=S)NC(=O)C1=Cc1ccc(-c2ccc(Cl)c(C(=O)O)c2)o1
2. O=C1NC(=S)NC(=O)C1=Cc1ccc(-c2cccc(C(=O)O)c2Cl)o1

1: 6.7; 2: 6.8

----------
SUBJECT OF TEST: Coagulation factor VIII (Homo sapiens)
PROCEDURE DETAILS: Inhibition Assay
DETAILS: 37 °C
READOUT LABEL: IC50
# answer = value followed by unit

Past entries and their recorded results:
[
  {
    "COMPOUND": "CCOc1ccc(-c2cc(C)n3nc(C(N)=O)cc3n2)cc1",
    "IC50": "26.8 µM"
  },
  {
    "COMPOUND": "CCOc1ccc(Cl)cc1/C=C1/SC(=S)N(CC)C1=O",
    "IC50": "49.6 µM"
  },
  {
    "COMPOUND": "O=C1/C(=C/c2ccc(Br)o2)SC(=S)N1c1ccc([N+](=O)[O-])cc1",
    "IC50": "4.63 µM"
  },
  {
    "COMPOUND": "O=C1NC(=S)NC(=O)C1=Cc1ccc(-c2cc(Cl)c([N+](=O)[O-])cc2Cl)o1",
    "IC50": "8.48 µM"
  },
  {
    "COMPOUND": "CCOC(=O)c1c(NC(=S)NC(=O)c2ccccc2)sc2c1CCC(C)C2 (configuration not stated)",
    "IC50": "27.7 µM"
  }
]

// batch mode: one IC50 value per listed entry
1. COc1cc(C=Nn2c(O)csc2=S)ccc1OCCOc1ccc(C(C)(C)C)cc1
2. O=C1NC(=S)NC(=O)C1=Cc1ccc(-c2cccc(C(=O)O)c2Cl)o1

["12.4 µM", "6.29 µM"]
